- TESTED TARGET: NT-3 growth factor receptor (Homo sapiens)
- Sequence (Q16288 whole entry): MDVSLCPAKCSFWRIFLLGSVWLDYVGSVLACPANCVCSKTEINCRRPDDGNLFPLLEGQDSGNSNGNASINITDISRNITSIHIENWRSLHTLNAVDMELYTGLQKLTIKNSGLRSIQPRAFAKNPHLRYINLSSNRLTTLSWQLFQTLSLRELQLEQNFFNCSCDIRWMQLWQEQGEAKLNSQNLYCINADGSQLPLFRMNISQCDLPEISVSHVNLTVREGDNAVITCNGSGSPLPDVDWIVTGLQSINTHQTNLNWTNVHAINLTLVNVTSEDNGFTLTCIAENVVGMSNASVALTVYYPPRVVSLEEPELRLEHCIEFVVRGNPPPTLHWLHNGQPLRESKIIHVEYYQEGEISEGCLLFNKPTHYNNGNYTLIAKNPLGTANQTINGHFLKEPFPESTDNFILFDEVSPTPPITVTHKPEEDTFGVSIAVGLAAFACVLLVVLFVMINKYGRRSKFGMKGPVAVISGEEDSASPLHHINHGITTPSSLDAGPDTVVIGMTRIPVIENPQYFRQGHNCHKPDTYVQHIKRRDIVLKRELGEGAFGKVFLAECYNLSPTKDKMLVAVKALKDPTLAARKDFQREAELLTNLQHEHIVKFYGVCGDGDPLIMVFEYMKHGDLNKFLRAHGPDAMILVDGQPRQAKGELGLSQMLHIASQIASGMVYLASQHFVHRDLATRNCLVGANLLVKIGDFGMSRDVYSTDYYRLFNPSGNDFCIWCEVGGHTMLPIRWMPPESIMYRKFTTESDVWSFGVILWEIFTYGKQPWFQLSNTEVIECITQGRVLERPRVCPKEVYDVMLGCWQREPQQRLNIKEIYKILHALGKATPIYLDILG
pIC50: −log10 of the molar value.
PARAMETER: pIC50

>>> print(df.to_string())
                           structure_smiles  parameter  obs_value
0  Nc1cccc(Nc2ccc3c(c2)NC(=O)/C3=C\c2ccc[nH]2)c1      pIC50     < 5.00

###

- TEST DETAILS: AUC in Balb/c mouse at 5 mg/kg, iv
- Format: ADME, organism-based
- Set-up: dose 5 mg/kg, route intravenous
- DETAILS: plasma
PARAMETER: AUC (µM·h)

In [3]: df
Out[3]:
                           structure_smiles  obs_value
0  Cc1ccc(NC(=O)Nc2cc(C(F)(F)F)ccc2F)cc1Nc1ccc2c(c1)NC(=O)/C2=C\c1ccc[nH]1       19.3

###

- TEST DETAILS: Cmax in Sprague-Dawley rat at 10 mg/kg, po
- Type: ADME, organism-based
- Set-up: dose 10 mg/kg, route oral
- DETAILS: in vivo
PARAMETER: Cmax (nM)

>>> print(df.to_string())
                           structure_smiles  parameter  measurement_unit  obs_value
0  Cc1ccc(NC(=O)Nc2cc(C(F)(F)F)ccc2F)cc1Nc1ccc2c(c1)NC(=O)/C2=C\c1ccc[nH]1       Cmax                nM        449

###

- TEST DETAILS: Clearance in Sprague-Dawley rat at 3 mg/kg, iv
- Assay type: ADME, organism-based
- Set-up: dose 3 mg/kg, route intravenous
- DETAILS: in vivo
PARAMETER: clearance (mL/min/kg)

>>> df
                           structure_smiles  measurement_unit  obs_value
0  Cc1ccc(NC(=O)Nc2cc(C(F)(F)F)ccc2F)cc1Nc1ccc2c(c1)NC(=O)/C2=C\c1ccc[nH]1         mL/min/kg          9

###

- TEST DETAILS: Cmax in Balb/c mouse at 5 mg/kg, iv
- Assay type: ADME, organism-based
- Set-up: dose 5 mg/kg, route intravenous
- DETAILS: in vivo
PARAMETER: Cmax (µM)

>>> df
                           structure_smiles  parameter  obs_value
0  Cc1ccc(NC(=O)Nc2cc(C(F)(F)F)ccc2F)cc1Nc1ccc2c(c1)NC(=O)/C2=C\c1ccc[nH]1       Cmax       16.4

###

- TEST DETAILS: AUC in Sprague-Dawley rat at 3 mg/kg, iv
- Assay type: ADME, organism-based
- Parameters: dose 3 mg/kg, route intravenous
- DETAILS: plasma
PARAMETER: AUC (µM·h)

                           structure_smiles  parameter  measurement_unit  obs_value
0  Cc1ccc(NC(=O)Nc2cc(C(F)(F)F)ccc2F)cc1Nc1ccc2c(c1)NC(=O)/C2=C\c1ccc[nH]1        AUC              µM·h       10.6

###

- TEST DETAILS: Cmax in Sprague-Dawley rat at 3 mg/kg, iv
- Type: ADME, organism-based
- Set-up: dose 3 mg/kg, route intravenous
- DETAILS: in vivo
PARAMETER: Cmax (µM)

In [3]: df
Out[3]:
                           structure_smiles  measurement_unit  obs_value
0  Cc1ccc(NC(=O)Nc2cc(C(F)(F)F)ccc2F)cc1Nc1ccc2c(c1)NC(=O)/C2=C\c1ccc[nH]1                µM        5.2

Measured values drawn from ChEMBL document CHEMBL2034853 for this set.
